Experiment: xn = mol fraction of the nth substance listed
Details: 318.15 K; 100 kPa; Liquid; Cone and plate viscometry; x1 = 0.6
Below: a set of entries, each annotated with reported viscosity.
Unit mPa·s implied. Number only.

CCCCCCCCCCCCCC[P+](CCCCCC)(CCCCCC)CCCCCC.N#Cc1ccc[n-]1 [trihexyl(tetradecyl)phosphonium 2-cyanopyrrolide] + CCCCCC[n+]1ccn(C)c1.O=S(=O)([N-]S(=O)(=O)C(F)(F)F)C(F)(F)F yielded viscosity of 107

CC(=O)[O-].CCCCCCCCCCCCCC[P+](CCCCCC)(CCCCCC)CCCCCC [trihexyl(tetradecyl)phosphonium acetate] + CCCCCC[n+]1ccn(C)c1.O=S(=O)([N-]S(=O)(=O)C(F)(F)F)C(F)(F)F yielded viscosity of 159

CCCCCCn1cc[n+](C)c1.N#Cc1ccc[n-]1 [1-hexyl-3-methylimidazolium 2-cyanopyrrolide] + CCCCCCCCCCCCCC[P+](CCCCCC)(CCCCCC)CCCCCC.O=S(=O)([N-]S(=O)(=O)C(F)(F)F)C(F)(F)F yielded viscosity of 102

CCCCCCCC[P+](CC)(CC)CC.O=[N+]([O-])c1cn[n-]c1 [triethyloctylphosphonium 4-nitropyrazolide] + CCCCCCn1cc[n+](C)c1C.O=S(=O)([N-]S(=O)(=O)C(F)(F)F)C(F)(F)F yielded viscosity of 83

* * *

Experiment: xn = mol fraction of the nth substance listed
Settings: 318.15 K; 100 kPa; Liquid; Cone and plate viscometry; x1 = 0.9
parameter: viscosity (mPa·s)
Unit mPa·s implied. Number only.

CCCCCCn1cc[n+](C)c1.O=[N+]([O-])c1cn[n-]c1 [1-hexyl-3-methylimidazolium 4-nitropyrazolide] + CCCCCCCC[P+](CC)(CC)CC.O=S(=O)([N-]S(=O)(=O)C(F)(F)F)C(F)(F)F yielded viscosity of 93

CCCCCCn1cc[n+](C)c1.N#Cc1ccc[n-]1 [1-hexyl-3-methylimidazolium 2-cyanopyrrolide] + CCCCCCCCCCCCCC[P+](CCCCCC)(CCCCCC)CCCCCC.O=S(=O)([N-]S(=O)(=O)C(F)(F)F)C(F)(F)F yielded viscosity of 79

* * *

Experiment: xn = mol fraction of the nth substance listed
Conditions: 303.15 K; 100 kPa; Liquid; Vibrating tube method; x1 = 0.25
Below: a set of entries, each annotated with reported mass density.
Unit kg/m3 implied. Number only.

Check out these entries, answers already filled in.
CCCCCCn1cc[n+](C)c1C.O=[N+]([O-])c1cn[n-]c1 [1-hexyl-2,3-dimethylimidazolium 4-nitropyrazolide] + CCCCCCCCCCCCCC[P+](CCCCCC)(CCCCCC)CCCCCC.O=S(=O)([N-]S(=O)(=O)C(F)(F)F)C(F)(F)F yielded mass density of 1067.5

CCCCCCCC[P+](CC)(CC)CC.O=[N+]([O-])c1cn[n-]c1 [triethyloctylphosphonium 4-nitropyrazolide] + CCCCCCn1cc[n+](C)c1C.O=S(=O)([N-]S(=O)(=O)C(F)(F)F)C(F)(F)F yielded mass density of 1273.7

CCCCCCCC[P+](CC)(CC)CC.O=[N+]([O-])c1cn[n-]c1 [triethyloctylphosphonium 4-nitropyrazolide] + CCCCCC[n+]1ccn(C)c1.O=S(=O)([N-]S(=O)(=O)C(F)(F)F)C(F)(F)F yielded mass density of 1280

Turning now to a further record.
CCCCCCn1cc[n+](C)c1.O=[N+]([O-])c1cn[n-]c1 [1-hexyl-3-methylimidazolium 4-nitropyrazolide] + CCCCCCCCCCCCCC[P+](CCCCCC)(CCCCCC)CCCCCC.O=S(=O)([N-]S(=O)(=O)C(F)(F)F)C(F)(F)F yielded mass density of 1067.4
